Measured values drawn from PubChem BioAssay for this set.

test_protocol: inhibitors of TNFa-induced NFkB p65 translocation, primary screen, imaging, HUVEC, MLSMR starter and 10KST1 sets (AID 438);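 note: compound added about 3h40 before a 20 min TNFalpha stimulation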
condition: HUVEC TNFa-induced p65 nuclear translocation; measured here: nuclei count (cytotoxicity indicator), at 2.08 µM
If the reported cell count equals or exceeds 500, assign Met. If not, assign Not met.

| molecule | classification |
| --- | --- |
| Cc1ccc(NCc2nnc(SCC(=O)NCc3ccco3)n2CC2CCCO2)cc1Cl (stereo not drawn) | Not met |
| CCCCCc1c(O)c2ccccc2[nH]c1=O | Met |
| CC(C)(C)c1cc(C(=S)N2CCN(CCO)CC2)cc(C(C)(C)C)c1O | Met |
| COc1ccc(Cl)cc1NC(=O)c1oc(C)nc1C | Met |
| CCOc1ccccc1CN1C(=O)c2ccccc2C1C(=O)NCC1CCCO1 (stereo not drawn) | Not met |
| CCCCOc1ccc(NC(=O)Cn2c(=O)ccc3c(C)cc(C)nc32)cc1 | Not met |
| Cc1ccc(C(=O)Nc2nc3c(s2)CCCC3)o1 | Not met |
| COc1ccc(-c2[nH]nc3c2C(c2ccccc2OC(=O)N2CCOCC2)C(C#N)=C(N)O3)cc1 (stereo not drawn) | Met |
| Cc1ccc(C(=O)CSc2nnc(CNc3ccc(C)cc3C)o2)cc1 | Met |
| O=C(NCc1ccccn1)c1ccc2nc(-c3ccco3)c(-c3ccco3)nc2c1 | Met |
| COc1cccc(NC(=O)CN2CCN(c3ccccc3F)CC2)c1 | Not met |
| CCOc1ccc(CCNC(=O)CCc2nc(-c3ccc(OC)cc3)no2)cc1OCC | Not met |
| COc1cccc(-n2c(C)nc3c(cnn3-c3ccc(Cl)cc3)c2=O)c1 | Not met |
| O=C(Cn1nnc(-c2ccncc2)n1)Nc1ccc2c(c1)CCC2 | Met |
| COc1cccc(OCCOCCN(C)CCO)c1 | Not met |
| COC(=O)c1oc2ccc(OC)cc2c1N | Met |
| CCCn1c(=N)n(CC(=O)c2cccs2)c2ccccc21 | Not met |
| O=C(CN1C(=O)COc2ccccc21)NCCCN1CCN(Cc2ccccc2)CC1 | Not met |
| CCCn1c(SCC(=O)Nc2cc(C)on2)nc2c1c(=O)n(C)c(=O)n2C | Not met |

---

test_protocol: blockers of RIG-like receptor reporter activation – cell-based, Sendai virus stimulus, luciferase, 10K MLSCN set, TLR/RLR signaling modifier project, primary screen (AID 602276);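 note: firefly luciferase from ISG56 promoter only with Renilla not read in this screen; 0% = Sendai virus plus DMSO and 100% = medium plus DMSO without virus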
condition: HEK293 RL24 IRF3 luciferase reporter, at 10 µM, stronger effect = higher value

| compound | inhibition (%) |
| --- | --- |
| COc1ccccc1-c1cc(C(=O)NCCCn2ccnc2)no1 | 5.02 |
| O=C(CN1C(=O)CCSc2ccccc21)Nc1ccc2c(c1)OCO2 | 12.5 |
| O=C1CN=C(Nc2cccc(C(F)(F)F)c2)N1C1CCCC1 | -11.3 |
| CCOC(=O)c1sc2ncn(/N=C/N(C)C)c(=O)c2c1C | 5.64 |
| CC(C)[C@H](NC(=O)OC(C)(C)C)c1nnc(S(=O)(=O)Cc2c(F)cccc2Cl)o1 | 32.2 |
| CCOc1ccc(C2/C(=C(/O)c3ccccc3)C(=O)C(=O)N2CCCN(C)C)cc1OC (stereo unspecified) | 19.2 |
| Cc1ccc(S(=O)(=O)NCCNC(=O)c2ccccc2)cc1 | 13.4 |
| N#Cc1c(NC(=O)CSc2nc(N)cc(=O)[nH]2)sc2c1CCCCCC2 | -11.2 |
| CCNc1nc(OC)nc(Oc2ccc(=O)n(-c3ccccc3)n2)n1 | 16.1 |
| CCOc1ccc(C(=O)N2CCC(C(=O)c3ccc4c(c3)OCCO4)CC2)cc1 | 10.8 |
| O=C(CN1C(=O)c2ccccc2C1=O)NCC1COc2ccccc2O1 (stereo unspecified) | -12.5 |
